# TARGET UNDER TEST: T1, Ravn strain cleaved MARV GP ectodomain (Marburg virus, Ravn strain, UniProt Q1PDC7 19-648)
# T1 chain: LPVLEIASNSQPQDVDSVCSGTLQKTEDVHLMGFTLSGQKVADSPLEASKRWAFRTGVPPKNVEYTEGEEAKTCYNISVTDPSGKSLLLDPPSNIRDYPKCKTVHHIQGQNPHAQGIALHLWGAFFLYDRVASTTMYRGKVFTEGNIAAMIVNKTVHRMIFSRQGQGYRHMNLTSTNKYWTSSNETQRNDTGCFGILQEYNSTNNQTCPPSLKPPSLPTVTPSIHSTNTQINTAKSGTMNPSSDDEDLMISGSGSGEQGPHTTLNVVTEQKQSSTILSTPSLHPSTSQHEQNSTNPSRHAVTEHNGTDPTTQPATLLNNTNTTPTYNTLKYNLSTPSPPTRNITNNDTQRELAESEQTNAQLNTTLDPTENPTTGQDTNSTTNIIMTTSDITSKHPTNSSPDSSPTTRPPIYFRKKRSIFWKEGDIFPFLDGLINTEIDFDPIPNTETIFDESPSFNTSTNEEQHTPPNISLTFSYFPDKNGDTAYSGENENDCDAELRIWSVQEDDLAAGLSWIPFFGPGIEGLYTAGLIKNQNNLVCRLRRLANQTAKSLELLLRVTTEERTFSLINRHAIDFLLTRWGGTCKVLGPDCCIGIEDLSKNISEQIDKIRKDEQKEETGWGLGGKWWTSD
# PROTOCOL DESCRIPTION: ELISA
I'd appreciate it if you could supply EC50 values for the items below.
Don't forget the unit after the value.

Ask: GET /values?readout=EC50&item= MR72 human monoclonal antibody (antibody, V domains shown) VH: QLQLQESGPGLVKPSETLSLTCTVSGDSINNTNYYWAWIRQPPGKGLEYIGSIYYSGSTYYNPSLKSRVTMSVDASKNQFSLRLSSVTAADTAVYYCATHPTLGAFVLLWFGANFDHWGQGTLVTVSS VL: QAVVTQPPSVSGAPGQRVTISCTGSSSNIGANYDVHWYQQLPGTAPKLLMYSNTNRPSGVPDRFSGSKSGTSASLAITGLQAEDEADYYCQSYDNSLNSWVFGGGTQLTVL
Result: 0.8 µg/mL

Ask: GET /values?readout=EC50&item= MR209 (antibody) chain 1: QLQLQESGPGLVKPSETLSLTCTVAGGPITSNNYYWGWIRQSPGKGLEWIGSVYYSGNTYYNPSIKTRVTMSVDTSKSQFSLKLNSVTAADTAVYYCARQFRLLQFVEWLHHFDSWGPGN chain 2: SYVLTQPPSVSVAPGQTARIPCGGNDIANKRVHWYQQKPGQAPMLVVYDDGDRPSGIPERFSGSNSGNTATLTISRVEAGDEADYYCQVWENSSDLCVVFGGGTKLTVL
Result: 2 µg/mL

Ask: GET /values?readout=EC50&item= MR201 (antibody, V domains shown) VH: QLQLQESGPGLVKPSETLFLSCAVSGGSIAGSTHYWGWIRQPPGKGLEWIGSISESGSTYHNPSLKSRVTISVDTSKNYFSLNLSSVTAADTAVYYCARIVGQSGTFIYYYYAMDVWGTGTLVTVSS VL: DIQLTQSPSFLSASVGDRVTITCRASQGISSYLAWYQQKPGKAPKLLIYAASTLQRGVPSRFSGSGSGTEFTLTISSLQPEDSATYYCQQLNSYLALIFGGGT
Result: 0.5 µg/mL
